pKd values, listed per item
- assayed-system: polyclonal IgG (Gammanorm, Octapharma, Sweden)
- assay-procedure: SPR (Biacore 8K+), variant amine-coupled to CM5, Gammanorm as analyte, steady state fit
pKd: −log10 of the molar value.
assay-readout: pKd

| binder | assay-readout | readout-number |
| --- | --- | --- |
| pAM129 (B3 domain of Protein L; pos 10 Q, pos 45 A, pos 60 Y) (designed binder) PKEEVTIKAQLIYADGKTQTAEFKGTFEEATAEAYRYADLLAKEAGKYTVDVADKGYTLYIKFAGKEKTPEE | pKd | 7.20 |
| pAM137 (B3 domain of Protein L; pos 10 Y, pos 45 A, pos 60 Q) (designed binder) PKEEVTIKAYLIYADGKTQTAEFKGTFEEATAEAYRYADLLAKEAGKYTVDVADKGYTLQIKFAGKEKTPEE | pKd | 7.19 |
| pAM133 (B3 domain of Protein L; pos 10 Y, pos 45 A, pos 60 N) (designed binder) PKEEVTIKAYLIYADGKTQTAEFKGTFEEATAEAYRYADLLAKEAGKYTVDVADKGYTLNIKFAGKEKTPEE | pKd | 7.34 |
| pAM177 (C3 domain of Protein L; pos 10 Y, pos 39 D, pos 45 H, pos 57 Y, pos 60 Y) (designed binder) PKEEVTIKVYLIFADGKIQTAEFKGTFEEATAKAYAYADLLAKEHGEYTADLEDGGYTIYIKFAGKETPETPEE | pKd | 7.24 |
| pAM170 (B4 domain of Protein L; pos 10 Y, pos 45 H, pos 60 Y) (designed binder) PKEEVTIKAYLIYADGKTQTAEFKGTFAEATAEAYRYADLLAKEHGKYTADLEDGGYTIYIRFAGKKVDEKPEE | pKd | 7.31 |
